target: PD-1/PD-L1 (Homo sapiens (Human)); assay: PD-1/PD-L1 biochemical protein-protein interaction assay (ALPHA); conditions: 0.3 nM His tagged PD-L1, 2.5 nM biotinylated Fc-PD-1, 60 minutes at 25° C., read-out: IC50 PD-L1-PD1
Sequence (Q9NZQ7 19-238): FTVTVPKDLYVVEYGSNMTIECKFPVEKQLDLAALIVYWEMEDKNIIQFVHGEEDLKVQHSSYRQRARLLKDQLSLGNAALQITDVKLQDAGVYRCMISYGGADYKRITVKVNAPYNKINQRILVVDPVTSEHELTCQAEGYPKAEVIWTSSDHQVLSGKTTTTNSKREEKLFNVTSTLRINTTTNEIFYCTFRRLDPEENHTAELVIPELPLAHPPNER
pIC50: −log10 of the molar value.
Property Name: pIC50

[a] COc1nc(-c2cccc(-c3cccc(-c4cnc(CN5CC(C)(N)C5)c(OC)n4)c3Cl)c2Cl)cnc1CN1CC(C)(N)C1 [compound 621]
[b] CC[C@@H]1OCC[C@H]1NCc1ncc(-c2cccc(-c3cccc(-c4cnc(CNC[C@@H]5CCC(=O)N5)c(OC)n4)c3Cl)c2Cl)nc1OC [compound 226]
**Query** Looking only at measured pIC50, which entry is lower, a or b ? Return value: the label identifying the chosen record.
**Result** a

[P] COc1nc(-c2cccc(-c3cccc(-c4cnc(CN5CC[C@@H]6CC[C@@H](O)[C@@H]65)c(OC)n4)c3Cl)c2Cl)cnc1CNC[C@@H]1CCC(=O)N1 [compound 216]
[Q] COCC1(CO)CCN(Cc2ncc(-c3cccc(-c4cccc(-c5cnc(CNC[C@@H]6CCC(=O)N6)c(OC)n5)c4Cl)c3Cl)nc2OC)C1 (stereo partly drawn) [compound 463]
**Query** Looking only at measured pIC50, which entry is lower, P or Q ? Return value: the label identifying the chosen record.
**Result** P
(P: 9.68, Q: 10.12)

---

molecular target: PD-1/PD-L1 (Homo sapiens (Human)); assay: PD-1/PD-L1 biochemical protein-protein interaction assay (ALPHA); settings: 0.3 nM His tagged PD-L1, 2.5 nM biotinylated Fc-PD-1, 60 minutes at 25° C., read-out: IC50 PD-L1-PD1
pIC50: −log10 of the molar value.
Property Name: pIC50

Sample records with pIC50:
COc1nc(-c2cccc(-c3cccc(-c4cnc(CN5CCN(C6CC6)CC5)c(OC)n4)c3Cl)c2Cl)cnc1CNC[C@@H]1CCC(=O)N1 [compound 269] : 9.64
COc1nc(-c2cccc(-c3cccc(-c4cnc(CNC[C@@H]5CCC(=O)N5)c(OC)n4)c3Cl)c2Cl)cnc1CN [compound 318] : 9.82
COC1CN(Cc2ncc(-c3cccc(-c4cccc(-c5cnc(CN6CC(OC)C6)c(Cl)n5)c4Cl)c3Cl)nc2Cl)C1 [compound 107] : 8.81
COc1nc(-c2cccc(-c3cccc(-c4cnc(CN5CCC(c6nnc[nH]6)C5)c(OC)n4)c3Cl)c2Cl)cnc1CNC[C@@H]1CCC(=O)N1 (stereo partly drawn) [compound 462] : 9.46
COc1nc(-c2cccc(-c3cccc(-c4cnc(CN5CC[C@@H](CO)[C@@H](O)C5)c(OC)n4)c3Cl)c2Cl)cnc1CNC[C@@H]1CCC(=O)N1 [compound 300] : 9.52

[P] COc1nc(-c2cccc(-c3cccc(-c4cnc(CN5CC(C(N)=O)C5)c(OC)n4)c3Cl)c2Cl)cnc1CN1CC(C(N)=O)C1 [compound 527]
[Q] COc1nc(-c2cccc(-c3cccc(-c4cnc(CNCC56CC(O)(C5)C6)c(OC)n4)c3Cl)c2Cl)cnc1CNCC12CC(O)(C1)C2 [compound 544]
[R] COc1nc(-c2cccc(-c3cccc(-c4cnc(CNC5CCC(F)(F)C5)c(OC)n4)c3Cl)c2Cl)cnc1CNC[C@@H]1CCC(=O)N1 (stereo partly drawn) [compound 267]
[S] COc1nc(-c2cccc(-c3cccc(-c4cnc(CN5CCCC(F)(F)C5)c(OC)n4)c3Cl)c2Cl)cnc1CNC[C@@H]1CCC(=O)N1 [compound 271]
**Query** Please list these compounds in decreasing order of pIC50. In your reply, arrange the labels in the requested order.
**Result** P, Q, R, S
(P: 10.05, Q: 9.62, R: 9.22, S: 8.77)
